This collection of values is drawn from ChEMBL document CHEMBL1201862.

# Tested on: A498
# ASSAY: NCI tumour cell line growth inhibition, 48 h
Activity calls are given as the source filed them. Cut-off read from the data, not from the text of the source: active = GI50 up to about 1.1 µM and inactive = higher.
Hello, when you answer, please use one of the following outcomes: active, inactive

>  <COMPOUND>
O=C(CCCn1ccnc1[N+](=O)[O-])NCCn1cnc([N+](=O)[O-])n1

>  <CAT>
inactive

$$$$
>  <COMPOUND>
O=C1C(c2c(O)[nH]c3ccc(Br)cc23)=Nc2ccccc21

>  <CAT>
inactive

$$$$
>  <COMPOUND>
CC(=O)O[C@H]1CC[C@@]2(C)C(=CC[C@@H]3[C@@H]2CC[C@]2(C)Nc4c(cnn4S(C)(=O)=O)C[C@@H]32)C1

>  <CAT>
inactive

$$$$

Just curious, what result did "N[C@H](Cc1ccc2oc3cc(=O)c4ccccc4c-3nc2c1)C(=O)O" get here? inactive

Same question, "C/C(CCn1[nH]c(=O)ccc1=O)=N\NC(=O)C(=O)NN" this time inactive

Same question, "COC(=O)NNC(=O)OC.COC(=O)Nc1ccccc1NC(=O)OC.COC(=O)Oc1nn(C(=O)OC)c(=O)c2ccccc12" this time inactive

Same question, C[C@]12CC[C@H](O)CC1CCC[C@@H]2O (stereo partly specified) this time inactive

Same question, CCOC(=O)C1CCCCN1CCc1c[nH]c2ccccc12 (stereo unspecified) this time inactive

Same question, "Cc1[nH]c2ccccc2c1/C=N/NC(=O)c1cccc(I)c1" this time inactive

###

# Test system: UACC-257
# ASSAY: NCI tumour cell line growth inhibition, 48 h
Active and inactive are the calls of the source. Cut-off read from the data, not from the text of the source: active = GI50 up to about 1.1 µM and inactive = higher.
What GI50 was measured for each of the following?

// worked examples, GI50 included
>  <MOLECULE>
CC(C)[Si](OC1=CCC[C@H]2NC(=O)[C@@H](Cc3ccccc3)[C@@]12C)(C(C)C)C(C)C

>  <GI50>
4.54 µM (inactive)

$$$$
>  <MOLECULE>
O/N=C1/C2CC3CC1(c1ccccc1)CC(/C3=N/O)/C2=N\O (stereo not given)

>  <GI50>
> 100 µM (inactive)

$$$$
>  <MOLECULE>
COC(=O)C(Cc1cn(C(C)n2cc(CC(NC(C)=O)C(=O)OC)c3ccccc32)c2ccccc12)NC(C)=O (stereo not given)

>  <GI50>
> 100 µM (inactive)

$$$$
>  <MOLECULE>
C=CCNC(NCC=C)=C(C(Cl)=C(Cl)Cl)[N+](=O)[O-]

>  <GI50>
> 100 µM (inactive)

$$$$
>  <MOLECULE>
C[C@]12CC[C@H](O)CC1CCC[C@@H]2O (stereo not given in full)

>  <GI50>
> 100 µM (inactive)

$$$$

Please supply GI50 for each of the following items, keeping them in order.
1. Clc1ccc2oc(CCC3CCCCC3)nc2c1
2. N#CC(C#N)=C1/C(=C/C=C/C=C/C=C/c2ccc(N3CCCCC3)s2)S(=O)(=O)c2ccccc21

1. 30.6 µM (inactive)
2. > 100 µM (inactive)

Please supply GI50 for each of the following items, keeping them in order.
1. Cc1ccccc1/N=N/c1ccc(N/N=C2/CCCNC2=O)c(C)c1
2. COc1ccc(C(=O)C#Cc2cnc(OC)nc2OC)cc1
3. C=C1C(O)C[C@H](OC(C)=O)[C@]2(C)C1C(OC(C)=O)[C@]1(C(C)(C)O)CC(O)C(C)=C1[C@@H](OC(=O)c1ccccc1)C2OC(C)=O (stereo not given in full)
4. COC(=O)C(NC(=O)C(CC(=O)OC(C)(C)C)NC(=O)OC(C)(C)C)C(O)c1ccccc1 (stereo not given)
5. COc1ccc(/C=C/c2cc(OC)c(OCc3ccccc3)c(OC)c2)cc1
6. NC(=O)c1cccc([C@@H]2O[C@H](CO)[C@@H](O)[C@H]2O)c1

> 100 µM (inactive)
2.09 µM (inactive)
> 10 µM (inactive)
74.5 µM (inactive)
99.1 µM (inactive)
> 100 µM (inactive)

Please supply GI50 for each of the following items, keeping them in order.
1. O=C1NCC2(CCN(CCCC3(c4ccc(F)cc4)OCCO3)CC2)N1c1ccccc1
2. Nc1ccccc1-n1c2c(c3ccccc3c1=O)C(=O)c1ccccc1-2
3. N#Cc1c(-c2ccccc2)c(/C=N/c2ccc(F)cc2)c(=O)n2c1[nH]c1ccccc12
4. Cc1cc(-c2nc3c(O)cccc3s2)ccc1N
5. N[C@H](Cc1ccc2oc3cc(=O)c4ccccc4c-3nc2c1)C(=O)O

1: 70.6 µM (inactive); 2: 35.9 µM (inactive); 3: 28.5 µM (inactive); 4: 20.3 µM (inactive); 5: 29.8 µM (inactive)

Please supply GI50 for each of the following items, keeping them in order.
1. CC(C)(C)OC(=O)n1cc(C2CNC(=O)C23CCC(=O)N3Cc2ccccc2)c2ccccc21 (stereo not given)
2. NC(=O)C1=NNc2ccccc2C(=O)N1c1ccccc1

1. 27 µM (inactive)
2. > 100 µM (inactive)
